system: brain; assay: NGS fold enrichment of synthetic library (passage 3) in BALB/c mice, first cross-species screen; format: in vivo; details: synthetic library passage 3, intravenous, RNA NGS, brain of BALB/c mice, relative to wild-type AAV9
Kindly state Fold enrichment over AAV9 in the brain of Mice (BALB/c) for each of the entries shown.
Give bare numbers, in fold.

GHTLTLSSGQNQQT 0.606
GAGVHMVSGQNQQT 0.791
GRHLVTASGQNQQT 0.404
GSGHMSDLRQNQQT 0.328

Could you tell me Fold enrichment over AAV9 in the brain of Mice (BALB/c) for each of these sequences? They are listed below.
1. GDMTRSSSGQNQQT
2. GSGQSYQRDHNQQT
3. GGRIVSLSGQNQQT
4. GSGLIRTAAQNQQT
5. GSLHHDNHGQNQQT
6. GRGVITSSGQNHQT
7. GTHPYTSSGQNQQT
8. GSGRLVPNGPNQQT

1. 1.038
2. 0.323
3. 0.847
4. 0.998
5. 0.463
6. 0.669
7. 0.471
8. 0.411
